Reference source: patent US20120171126A1

System: IL-8
assay_summary: Glucocorticoid transrepression assay, IL-8 inhibition (TR)
Assay type: cell-based
conditions_used: Homo sapiens; Table 1; NCl-H292 cells, TNFα 10 ng/ml
assay_metric: IC50

Recorded results for 5 compounds are shown here.
1. CC12Cc3cnn(-c4ccccn4)c3C=C1CCC1C2[C@@H](O)CC2(C)C1CC[C@]2(O)C(=O)CSc1nc2ncccc2o1 (stereo partly drawn) [Compound 43]: 21 to 65 nM
2. Cc1ccnc(SCC(=O)[C@@]2(O)CCC3C4CCC5=Cc6c(cnn6-c6ccc(F)cc6)CC5(C)C4[C@@H](O)CC32C)n1 (stereo partly drawn) [Compound 97]: 0.06 to 20 nM
3. CC12Cc3cnn(C4CCOCC4)c3C=C1CCC1C2[C@@H](O)CC2(C)C1CC[C@]2(O)C(=O)CSc1nc2ccccc2s1 (stereo partly drawn) [Compound 69]: 66 to 400 nM
4. Cn1ncc2c1C=C1CCC3C([C@@H](O)CC4(C)C3CC[C@]4(O)C(=O)CSc3nc4ccccc4[nH]3)C1(C)C2 (stereo partly drawn) [Compound 24]: 66 to 400 nM
5. CC12Cc3cnn(-c4ccc(F)cc4)c3C=C1CCC1C2[C@@H](O)CC2(C)C1CC[C@]2(O)C(=O)CSc1ncccn1 (stereo partly drawn) [Compound 7]: 0.06 to 20 nM

Enquiry: Using the record for Cc1nc(SCC(=O)[C@@]2(O)CCC3C4CCC5=Cc6c(cnn6C6CCCCC6)CC5(C)C4[C@@H](O)CC32C)sc1C (stereo partly drawn) [Compound 130] , report its IC50.
Return: 0.06 to 20 nM

====

Tested on: IL-8
assay_summary: Glucocorticoid transrepression assay, IL-8 inhibition (TR)
Format: cell-based
conditions_used: Homo sapiens; Table 1; NCl-H292 cells, TNFα 10 ng/ml; read-out: IL-8 inhibition (TR) Emax % inhibition
In this section we review reported Emax values for a set of molecules.

Solved entries (count: 2):
1) CC12Cc3cnn(-c4ccccn4)c3C=C1CCC1C2[C@@H](O)CC2(C)C1CC[C@]2(O)C(=O)CSc1nc2ncccc2o1 (stereo partly drawn): 70 to 80%
2) CC12Cc3cnn(-c4ccc(F)cc4)c3C=C1CCC1C2[C@@H](O)CC2(C)C1CC[C@]2(OC(=O)c1ccco1)C(=O)CSc1nc2ncccc2o1 (stereo partly drawn): > 80%

Consider the record given below.
Enquiry: Which Emax value belongs to CC12Cc3cnn(C(C)(C)C)c3C=C1CCC1C2[C@@H](O)CC2(C)C1CC[C@]2(O)C(=O)CSc1nc2ncccc2o1 (stereo partly drawn) ?
Return: < 60%

====

System: IL-8
assay_summary: Glucocorticoid transrepression assay, IL-8 inhibition (TR)
Type: cell-based
conditions_used: Homo sapiens; Table 1; NCl-H292 cells, TNFα 10 ng/ml; read-out: IL-8 inhibition (TR) Emax % inhibition
assay_metric: Emax

1. Cc1ccccc1-n1ncc2c1C=C1CCC3C([C@@H](O)CC4(C)C3CC[C@]4(O)C(=O)CSc3ccccn3)C1(C)C2 (stereo partly shown): < 60%

Enquiry: Give its Emax value. Item: CC12Cc3cnn(CCC#N)c3C=C1CCC1C2[C@@H](O)CC2(C)C1CC[C@]2(O)C(=O)CSc1cnc2ccccc2n1 (stereo partly shown)
Return: < 60%

Enquiry: Another: Cc1ccnc(SCC(=O)[C@@]2(O)CCC3C4CCC5=Cc6c(cnn6-c6ccccn6)CC5(C)C4[C@@H](O)CC32C)n1 (stereo partly shown)
Return: > 80%

Enquiry: Can you check Cc1ccnc(SCC(=O)[C@@]2(O)CCC3C4CCC5=Cc6c(cnn6C)CC5(C)C4[C@@H](O)CC32C)n1 (stereo partly shown) next?
Return: < 60%

Enquiry: And then COc1ccc2nc(SCC(=O)[C@@]3(O)CCC4C5CCC6=Cc7c(cnn7-c7ccc(F)cc7)CC6(C)C5[C@@H](O)CC43C)sc2c1 (stereo partly shown) , what is it?
Return: > 80%

Enquiry: Please give the result for CC12Cc3cnn(-c4ccc(F)cc4)c3C=C1CCC1C2[C@@H](O)CC2(C)C1CC[C@]2(O)C(=O)CSc1nc2cccnc2s1 (stereo partly shown) too.
Return: > 80%

Enquiry: Try Cn1ncc2c1C=C1CCC3C([C@@H](O)CC4(C)C3CC[C@]4(O)C(=O)CSc3nc4cccnc4s3)C1(C)C2 (stereo partly shown) next.
Return: < 60%

====

System: IL-8
assay_summary: Glucocorticoid transrepression assay, IL-8 inhibition (TR)
Assay type: cell-based
conditions_used: Homo sapiens; Table 1; NCl-H292 cells, TNFα 10 ng/ml; read-out: IL-8 inhibition (TR) Emax % inhibition
assay_metric: Emax

A selection of reference data follows.
1) Cc1cccc(SCC(=O)[C@@]2(O)CCC3C4CCC5=Cc6c(cnn6-c6ccccn6)CC5(C)C4[C@@H](O)CC32C)n1 (some centres unmarked): > 80%
2) CC12Cc3cnn(CCC#N)c3C=C1CCC1C2[C@@H](O)CC2(C)C1CC[C@]2(O)C(=O)CSc1nc2ccccc2s1 (some centres unmarked): < 60%
3) Cn1ncc2c1C=C1CCC3C([C@@H](O)CC4(C)C3CC[C@]4(O)C(=O)CSc3cnc4ccccc4n3)C1(C)C2 (some centres unmarked): 60 to 70%
4) CC12Cc3cnn(-c4ccc(F)cc4)c3C=C1CCC1C2[C@@H](O)CC2(C)C1CC[C@]2(O)C(=O)COc1nccc2ccccc12 (some centres unmarked): > 80%

Enquiry: State the recorded Emax for this entry: CC12Cc3cnn(-c4ccccn4)c3C=C1CCC1C2[C@@H](O)CC2(C)C1CC[C@]2(O)C(=O)CSc1nc2cccnc2s1 (some centres unmarked)
Return: 70 to 80%

Enquiry: Next entry: Cc1ccccc1-n1ncc2c1C=C1CCC3C([C@@H](O)CC4(C)C3CC[C@]4(O)C(=O)CSc3nc4ccccc4[nH]3)C1(C)C2 (some centres unmarked)
Return: < 60%

====

Test system: IL-8
assay_summary: Glucocorticoid transrepression assay, IL-8 inhibition (TR)
Format: cell-based
conditions_used: Homo sapiens; Table 1; NCl-H292 cells, TNFα 10 ng/ml
assay_metric: IC50

Worked cases, IC50 given:
1) Cn1c(SCC(=O)[C@@]2(O)CCC3C4CCC5=Cc6c(cnn6-c6ccccn6)CC5(C)C4[C@@H](O)CC32C)nc2ccccc21 (stereo partly shown) [Compound 34]: 66 to 400 nM
2) CC12Cc3cnn(-c4ccccn4)c3C=C1CCC1C2[C@@H](O)CC2(C)C1CC[C@]2(O)C(=O)CSc1nc2ccccc2[nH]1 (stereo partly shown) [Compound 38]: 401 to 1000 nM
3) Cn1c(SCC(=O)[C@@]2(O)CCC3C4CCC5=Cc6c(cnn6C6CCOCC6)CC5(C)C4[C@@H](O)CC32C)nc2ccccc21 (stereo partly shown) [Compound 70]: 21 to 65 nM
4) CC12Cc3cnn(-c4ccccc4)c3C=C1CCC1C2[C@@H](O)CC2(C)C1CC[C@]2(O)C(=O)CSc1ccccn1 (stereo partly shown) [Compound 16]: 0.06 to 20 nM
5) CC12Cc3cnn(-c4ccc(F)cc4)c3C=C1CCC1C2[C@@H](O)CC2(C)C1CC[C@]2(O)C(=O)CSc1ncnc2ccccc12 (stereo partly shown) [Compound 98]: 0.06 to 20 nM

Then this compound:
Enquiry: Please give the measured IC50 for this compound: COc1ccc2nc(SCC(=O)[C@@]3(O)CCC4C5CCC6=Cc7c(cnn7-c7ccc(F)cc7)CC6(C)C5[C@@H](O)CC43C)sc2c1 (stereo partly shown) [Compound 103]
Return: 0.06 to 20 nM

====

Tested on: IL-8
assay_summary: Glucocorticoid transrepression assay, IL-8 inhibition (TR)
Assay type: cell-based
conditions_used: Homo sapiens; Table 1; NCl-H292 cells, TNFα 10 ng/ml; read-out: IL-8 inhibition (TR) Emax % inhibition
assay_metric: Emax

// known answers, use as guide
1) CC12Cc3cnn(-c4ccc(F)cc4)c3C=C1CCC1C2[C@@H](O)CC2(C)C1CC[C@]2(O)C(=O)CSc1ncnc2ccccc12 (some centres unmarked) [Compound 98]: > 80%
2) CC12Cc3cnn(C(C)(C)C)c3C=C1CCC1C2[C@@H](O)CC2(C)C1CC[C@]2(O)C(=O)CSc1ccc2ccccc2n1 (some centres unmarked) [Compound 67]: < 60%
3) Cn1ncc2c1C=C1CCC3C([C@@H](O)CC4(C)C3CC[C@]4(O)C(=O)CSc3nc4ccccc4[nH]3)C1(C)C2 (some centres unmarked) [Compound 24]: 70 to 80%
4) CC12Cc3cnn(CCC#N)c3C=C1CCC1C2[C@@H](O)CC2(C)C1CC[C@]2(O)C(=O)CSc1nc2ccccc2[nH]1 (some centres unmarked) [Compound 52]: < 60%
5) COc1ccc(-n2ncc3c2C=C2CCC4C([C@@H](O)CC5(C)C4CC[C@]5(O)C(=O)CSc4nc5ccccc5s4)C2(C)C3)cc1 (some centres unmarked) [Compound 85]: 70 to 80%

Enquiry: Record request: Emax value, item Cn1c(SCC(=O)[C@@]2(O)CCC3C4CCC5=Cc6c(cnn6-c6ccccn6)CC5(C)C4[C@@H](O)CC32C)nc2ccccc21 (some centres unmarked) [Compound 34]
Return: 60 to 70%

Enquiry: Now consider Cc1cccc(SCC(=O)[C@@]2(O)CCC3C4CCC5=Cc6c(cnn6CCC#N)CC5(C)C4[C@@H](O)CC32C)n1 (some centres unmarked) [Compound 61] and answer again.
Return: 70 to 80%

Enquiry: Moving on to Cc1ccccc1-n1ncc2c1C=C1CCC3C([C@@H](O)CC4(C)C3CC[C@]4(O)C(=O)CSc3nc4ncccc4o3)C1(C)C2 (some centres unmarked) [Compound 79]
Return: < 60%

Enquiry: Try this compound too: Cn1c(SCC(=O)[C@@]2(O)CCC3C4CCC5=Cc6c(cnn6C6CCOCC6)CC5(C)C4[C@@H](O)CC32C)nc2ccccc21 (some centres unmarked) [Compound 70]
Return: > 80%

Enquiry: Proceed to Cc1ccnc(SCC(=O)[C@@]2(O)CCC3C4CCC5=Cc6c(cnn6CCC#N)CC5(C)C4[C@@H](O)CC32C)n1 (some centres unmarked) [Compound 59]
Return: 60 to 70%

Enquiry: Same for COc1ccc(-n2ncc3c2C=C2CCC4C([C@@H](O)CC5(C)C4CC[C@]5(O)C(=O)CSc4nc5ccccc5n4C)C2(C)C3)cc1 (some centres unmarked) [Compound 86]
Return: 70 to 80%

Enquiry: How about this compound: COc1ccc(-n2ncc3c2C=C2CCC4C([C@@H](O)CC5(C)C4CC[C@]5(O)C(=O)CSc4ccc5ccccc5n4)C2(C)C3)cc1 (some centres unmarked) [Compound 89]
Return: < 60%

Enquiry: What do you get for CC12Cc3cnn(C(C)(C)C)c3C=C1CCC1C2[C@@H](O)CC2(C)C1CC[C@]2(O)C(=O)CSc1nc2ccccc2[nH]1 (some centres unmarked) [Compound 68] ?
Return: < 60%

Enquiry: Now this one: Cc1cccc(SCC(=O)[C@@]2(O)CCC3C4CCC5=Cc6c(cnn6C)CC5(C)C4[C@@H](O)CC32C)n1 (some centres unmarked) [Compound 33]
Return: < 60%

Enquiry: Likewise for CC12Cc3cnn(-c4ccc(F)cc4)c3C=C1CCC1C2[C@@H](O)CC2(C)C1CC[C@]2(O)C(=O)CSc1ncccn1 (some centres unmarked) [Compound 7] ?
Return: > 80%

Enquiry: Proceed to CC12Cc3cnn(-c4ccccn4)c3C=C1CCC1C2[C@@H](O)CC2(C)C1CC[C@]2(O)C(=O)CSc1nc2ccccc2o1 (some centres unmarked) [Compound 36]
Return: > 80%

Enquiry: Entry to check: CC12Cc3cnn(-c4ccc(F)cc4)c3C=C1CCC1C2[C@@H](O)CC2(C)C1CC[C@]2(O)C(=O)CSc1nc2ccccc2s1 (some centres unmarked) [Compound 1]
Return: > 80%

Enquiry: What would you report for CC12Cc3cnn(C(C)(C)C)c3C=C1CCC1C2[C@@H](O)CC2(C)C1CC[C@]2(O)C(=O)CSc1ccccn1 (some centres unmarked) [Compound 66] ?
Return: < 60%

Enquiry: Also check Cn1c(SCC(=O)[C@@]2(O)CCC3C4CCC5=Cc6c(cnn6-c6ccc(F)cc6)CC5(C)C4[C@@H](O)CC32C)nc2cc(S(N)(=O)=O)ccc21 (some centres unmarked) [Compound 123]
Return: > 80%

Enquiry: Same again, this time with CC12Cc3cnn(C(C)(C)C)c3C=C1CCC1C2[C@@H](O)CC2(C)C1CC[C@]2(O)C(=O)CSc1nc2ccccc2s1 (some centres unmarked) [Compound 62]
Return: < 60%

Enquiry: Entry to check: Cn1ncc2c1C=C1CCC3C([C@@H](O)CC4(C)C3CC[C@]4(O)C(=O)CSc3ncccn3)C1(C)C2 (some centres unmarked) [Compound 26]
Return: < 60%
